Quick reference for Edema inhibition among some compounds
Tested on: carrageenan-induced edema
ASSAY METHOD TEXT: Carrageenan-induced edema inhibiting effect of betamethasone valerate ointment
Assay type: in vivo
CONDITIONS USED: 6 hrs.; rat paw, 0.15 part betamethasone valerate, 9.85 parts enhancer; vs gel ointment base
PROPERTY NAME: Edema inhibition (%)

CCC=CCCCCCCCCOC(=O)[C@@H]1CCC(=O)N1 [Compound (220), 9-Dodecenyl L-pyroglutamate] = 37.7
CCOC(=O)[C@@H]1CCC(=O)N1 [Ethyl L-pyroglutamate] = 12.7
CCCCCCCCCCCCCCOC(=O)[C@@H]1CCC(=O)N1 [Compound (120), Tetradecyl L-pyroglutamate] = 38.5
CCCCCCCCCCCCCCCCCCOC(=O)[C@@H]1CCC(=O)N1 [Octadecyl L-pyroglutamate] = 11.4
CCCCCCCCCCOC(=O)C1CCC(=O)N1 (racemic) [Compound (102), Decyl DL-pyroglutamate] = 39.7
CCCCCCOC(=O)C1CCC(=O)N1 (racemic) [Hexyl DL-pyroglutamate] = 11.5
CCCCCCOC(=O)[C@@H]1CCC(=O)N1 [Hexyl L-pyroglutamate] = 11.5
CCCCCCCCCCCCCCCCCCCCOC(=O)[C@@H]1CCC(=O)N1 [Eicosanyl L-pyroglutamate] = 10.5
CCCCCCCCCCCCCOC(=O)[C@@H]1CCC(=O)N1 [Compound (118), Tridecyl L-pyroglutamate] = 38.5
CCCCCCCCCCCCCCCCCOC(=O)C1CCC(=O)N1 (racemic) [Heptadecyl DL-pyroglutamate] = 12.8
CCCCCCCCCCCCOC(=O)C1CCC(=O)N1 (racemic) [Compound (106), Dodecyl DL-pyroglutamate] = 40.1
CCCCCCCCCCCCCCCCCOC(=O)[C@@H]1CCC(=O)N1 [Heptadecyl L-pyroglutamate] = 10.6
CCCCCCCOC(=O)C1CCC(=O)N1 (racemic) [Heptyl DL-pyroglutamate] = 10.9
CCOC(=O)C1CCC(=O)N1 (racemic) [Ethyl DL-pyroglutamate] = 10.2
CCCCCCCCCCCOC(=O)[C@@H]1CCC(=O)N1 [Compound (114), Undecyl L-pyroglutamate] = 38.5
O=C1CC[C@@H](C(=O)O)N1 = 11.2
CC1CCC(C(C)C)C(OC(=O)[C@@H]2CCC(=O)N2)C1 (stereo partly drawn) [Compound (308), Menthyl L-pyroglutamate] = 38.0
CCCCCCCCCCCCCCCCCCOC(=O)C1CCC(=O)N1 (racemic) [Octadecyl DL-pyroglutamate] = 13.0
CCCCCCCCCCCCOC(=O)[C@@H]1CCC(=O)N1 [Compound (116), Dodecyl L-pyroglutamate] = 40.2
CCCCCCCCCCCOC(=O)C1CCC(=O)N1 (racemic) [Compound (104), Undecyl DL-pyroglutamate] = 40.1
CCCCCCCCCCOC(=O)[C@@H]1CCC(=O)N1 [Compound (112), Decyl L-pyroglutamate] = 38.9
CCCCCCCCCCCCCOC(=O)C1CCC(=O)N1 (racemic) [Compound (108), Tridecyl DL-pyroglutamate] = 35.3
O=C1CCC(C(=O)O)N1 (racemic) = 11.4
CC1(C)C2CCC1(C)C(OC(=O)[C@@H]1CCC(=O)N1)C2 (stereo partly drawn) [Compound (310), Bornyl L-pyroglutamate] = 39.4
CCCCCCCCCCCCCCCCCCCCOC(=O)C1CCC(=O)N1 (racemic) [Eicosanyl DL-pyroglutamate] = 11.1
CCCCCCCCCCCCCCOC(=O)C1CCC(=O)N1 (racemic) [Compound (110), Tetradecyl DL-pyroglutamate] = 38.0
CC(C)=CCCC(C)CCOC(=O)[C@@H]1CCC(=O)N1 (stereo partly drawn) [Compound (224), Citronyl L-pyroglutamate] = 38.8
CCCCCCCOC(=O)[C@@H]1CCC(=O)N1 [Heptyl L-pyroglutamate] = 12.8

FYI, the data here is from patent US4789667A.
